- Tested on: P. falciparum male gametocytes
- TEST_METHOD_NOTES: P. falciparum Dual Gamete Formation Assay (PfDGFA), male readout (exflagellation)
- Type: cell-based, Plasmodium falciparum NF54
- CONDITION_PARAMETERS: 2µM, 24h preincubation; number of replicates with >50% inhibition in the male readout
Parameter HitlevelM: see the listing below.
Form field (numeric): enter value without unit.

What measured HitlevelM is associated with FC(F)(F)c1ccc2[nH]c(-c3ccc(-c4ccc(CNCCN5CCNCC5)cc4)s3)nc2c1.O=C(O)C(F)(F)F [TCMDC-132862] on P. falciparum male gametocytes?
2

Request: HitlevelM, test system P. falciparum male gametocytes, entry Cl.N=C(NCCCc1ccccc1)c1cccc(C(=N)NCCCc2ccccc2)n1 [TCMDC-137453]
0

// fetch P. falciparum male gametocytes HitlevelM for Nc1cc2c(C3CCN(CC4CCN(C(=O)/C=C/c5ccc(Cl)c(Cl)c5)CC4)CC3)c[nH]c2cn1 [TCMDC-140133]
3

Further cases:
What value of HitlevelM on P. falciparum male gametocytes does Cl.c1ccc2c(NCCCCCCCCCNc3c4ccccc4nc4ccccc34)c3ccccc3nc2c1 [TCMDC-124286] have?
3

What measured HitlevelM is associated with NC1CCN(Cc2ccc(-c3ccc(-c4nc5ccccc5[nH]4)cc3)cc2)C1.O=C(O)C(F)(F)F (stereo not shown) [TCMDC-133868] on P. falciparum male gametocytes?
3

Can you look up HitlevelM on P. falciparum male gametocytes for COc1cccc(-c2csc(C(=O)NCC3CCN(Cc4ccc(C(C)(C)C)cc4)C3)c2)c1.O=C(O)C(F)(F)F (stereo not shown) [TCMDC-134447] ?
0

Quick check: HitlevelM on P. falciparum male gametocytes, item Cc1cccc2nc(-c3ccc(-c4ccc(CN5CCN(C6CCN(C)CC6)CC5)cc4)s3)[nH]c12.O=C(O)C(F)(F)F [TCMDC-133866] ?
0

What HitlevelM appears in the records for this molecule with P. falciparum male gametocytes? COc1ccc(NC(=O)c2cccc(Br)c2)cc1N1CCN(CCCCCCCN2CCN(c3cc(NC(=O)c4cccc(Br)c4)ccc3OC)CC2)CC1.Cl [TCMDC-139020]
0

Enter reported HitlevelM observed with P. falciparum male gametocytes for CCC1CN2CCc3cc(OC)c(OC)cc3C2CC1CC1NCCc2cc(OC)c(OC)cc21.Cl (stereo not shown) [TCMDC-125849]
2

Item: CCN1CCC2(c3cccc(OC)c3)Cc3nc4ccccc4c(-c4ccccc4)c3CC2C1 (stereo not shown) [TCMDC-138968] Test system: P. falciparum male gametocytes Read-out: HitlevelM Value: ?
2

Entry Cc1cc(F)ccc1-c1nc(NCCCNCCc2ccccc2)nc2c1ccc(=O)n2-c1c(F)cccc1F.O=C(O)C(F)(F)F [TCMDC-141804] , system P. falciparum male gametocytes: what HitlevelM was measured?
0

Give HitlevelM (P. falciparum male gametocytes) of the following molecule: Cc1cc2c3c(N)nc(N)nc3ccc2n1C [TCMDC-137957]
0

Short answer please: HitlevelM, P. falciparum male gametocytes, entry COc1ccc(CNC2Cc3ccccc3C2)cc1-c1cccc(S(=O)(=O)NCCN2CCCC2)c1.O=C(O)C(F)(F)F [TCMDC-132269]
0

Hi! What's the reported HitlevelM for CCCCCCOc1ccc2ccccc2c1CNCCCCCCNCc1c(OCCCCCC)ccc2ccccc12.CS(=O)(=O)O [TCMDC-137963] on P. falciparum male gametocytes?
0

Record CN1CCC(N2CCC(Oc3cccc(C(=O)NCCCC4CCCC4)c3)CC2)CC1 [TCMDC-124677] : what is its HitlevelM with P. falciparum male gametocytes?
3

Record Cc1cccc2nc(-c3ccc(-c4cccc(CN5CCC(CCN6CCCCC6)CC5)c4)s3)[nH]c12.O=C(O)C(F)(F)F [TCMDC-133923] : what is its HitlevelM with P. falciparum male gametocytes?
2

// fetch P. falciparum male gametocytes HitlevelM for COc1cc(NC(=O)c2sc(-c3ccc(Cl)cc3)cc2NC(=O)c2cccnc2)ccc1OCCN1CCCC1 [TCMDC-135397]
2

# query: HitlevelM | item Nc1ccc2[nH]cc(C3CCN(CCC4CCN(C(=O)/C=C/c5ccc(Cl)c(Cl)c5)CC4)CC3)c2n1 [TCMDC-140062] | system: P. falciparum male gametocytes
1

---

- Tested on: P. berghei ookinete development
- TEST_METHOD_NOTES: P. berghei Ookinete Development Assay (PbODA)
- Type: cell-based, Plasmodium berghei
- CONDITION_PARAMETERS: Mean TOX HepG2 over Pb ODA value; GREEN = >10-fold; RED = <10-fold
The following compounds are shown together with reported Cytotox ratio Pb Ookinete values.
Simply state the number, no unit and no words.

Entry CN1CCN(c2ccc(Nc3ncc(Cl)c(Nc4cccnc4C(N)=O)n3)cc2)CC1.Cl [TC24] , system P. berghei ookinete development: what Cytotox ratio Pb Ookinete was measured?
13093.5

Give P. berghei ookinete development Cytotox ratio Pb Ookinete for C#C[C@H]1O[C@@H](n2cnc3c(Nc4cc(Br)cc(C(F)(F)F)c4)ncnc32)[C@H](O)[C@@H]1O [TC70]
88432.3

Enter reported Cytotox ratio Pb Ookinete observed with P. berghei ookinete development for COc1ccc(Nc2ncc(C#N)c(Nc3ccccc3C(N)=O)n2)cc1N1CCN(C)CC1.Cl [TC22]
308001.0

Please state recorded Cytotox ratio Pb Ookinete (tested on P. berghei ookinete development) of O=c1c(Br)ccccc1Br [TC48]
10834.6

Enter reported Cytotox ratio Pb Ookinete observed with P. berghei ookinete development for Br.CC[C@H]1CN2CCc3cc(OC)c(OC)cc3[C@@H]2C[C@@H]1C[C@H]1NCCc2c1cc(OC)c(O)c2I [TC07]
8736.5

Kindly review the next compound as well.
// map CC(C)(CN)c1nc(-c2ccc(Br)c(O)c2)c(-c2ccncc2)[nH]1.Cl [TC13] to recorded Cytotox ratio Pb Ookinete (system: P. berghei ookinete development)
38479.3

---

- Tested on: P. falciparum male gametocytes
- TEST_METHOD_NOTES: P. falciparum Dual Gamete Formation Assay (PfDGFA), male readout (exflagellation)
- Type: cell-based, Plasmodium falciparum NF54
- CONDITION_PARAMETERS: PfDGFA at 2µM, 24h preincubation with gametocytes; replicate R1
Quick rule: % inhibition male (individual replicates) R1 of at least 80% means Y, below that means N.

Quick check: does CCN1CCN(c2ccc(Nc3c4ccccc4nc4ccccc34)cc2)CC1 have % inhibition male (individual replicates) R1 greater than or equal to 80%?
Y

Test whether the compound Cn1c(-c2ccccc2)cc2c3c(N)nc(N)nc3ccc21 records % inhibition male (individual replicates) R1 of 80% or higher.
N

Quick check: does COc1ccc(CNC2CCN(C)CC2)cc1-c1ccc(S(=O)(=O)NCc2ccccc2)c(F)c1.O=C(O)C(F)(F)F have % inhibition male (individual replicates) R1 greater than or equal to 80%?
N

Test whether the compound COc1ccc2c(c1CCNCCCCNCCc1c(OC)ccc3c1CCCC3)CCCC2.CS(=O)(=O)O records % inhibition male (individual replicates) R1 of 80% or higher.
Y

Is reported % inhibition male (individual replicates) R1 greater than or equal to 80% here: CCc1c(CCNCCCCCCNC(C)Cc2ccc3c(c2CC)OCO3)ccc(OC)c1OC.Cl (centres unmarked)
Y

Answer whether % inhibition male (individual replicates) R1 of CCc1c(CCNCCCCCCNC(C)(C)Cc2ccc3c(c2CC)OCO3)ccc(OC)c1OC.Cl is greater than or equal to 80%.
N

---

Here, each record is paired with measured Average inhibition male (%) data.
- Tested on: P. falciparum male gametocytes
- TEST_METHOD_NOTES: P. falciparum Dual Gamete Formation Assay (PfDGFA), male readout (exflagellation)
- Assay type: cell-based, Plasmodium falciparum NF54
- CONDITION_PARAMETERS: 2µM, 24h preincubation with gametocytes prior to induction of gametogenesis; average of replicates
A number alone suffices; assume %.

What Average inhibition male (%) value was documented for this compound, O=C(O)C(F)(F)F.O=S(=O)(NCCN1CCCC1)c1ccc(-c2ccc(CNC3Cc4ccccc4C3)cc2)s1 ?
17.3

For COc1cc2ncnc(Nc3ccc(OCc4ccccc4)c(OCc4ccccc4)c3)c2cc1OC.Cl , what is its reported Average inhibition male (%)?
5.7

For Cl.Cn1ccc(-c2cccc(Nc3ccnc4cc(-c5nccs5)ccc34)c2)n1 , what is its reported Average inhibition male (%)?
33.2

// next entry
GET /values?readout=Average inhibition male (%)&item= Cl.c1ccc2c(c1)cc(CNCCCN1CCN(CCCNCc3cc4ccccc4c4ccccc34)CC1)c1ccccc12
5.2

---

Recorded inhibition at 2 µM by entry
- Test system: P. falciparum male gametocytes
- TEST_METHOD_NOTES: P. falciparum Dual Gamete Formation Assay (PfDGFA), male readout (exflagellation)
- Type: cell-based, Plasmodium falciparum NF54
- CONDITION_PARAMETERS: Plasmodium falciparum; 2µM, 24h preincubation with gametocytes prior to induction of gametogenesis; replicate R3; read-out: % inhibition male (individual replicates) R3
The reply should be a number in %, with the unit left off.

Which measured inhibition at 2 µM value corresponds to COc1cc2nc(N3CCN(c4nc(N)c5cc(OC)c(OC)cc5n4)CC3)nc(N)c2cc1OC ?
23.6

I am curious: what inhibition at 2 µM value has been reported for CCC1CN2CCc3cc(OC)c(OC)cc3C2CC1CC1NCCc2cc(OC)c(OC)cc21.Cl (stereo not shown) ?
59.3

Could you tell me which inhibition at 2 µM is on file for Cc1cccc2nc(-c3ccc(-c4cccc(CNCCN5CCNCC5)c4)cc3)[nH]c12.O=C(O)C(F)(F)F ?
9.9

Note: attention shifts to another entry.
State the recorded inhibition at 2 µM for this entry: CN1CCN(c2ccc(Nc3c4ccccc4nc4ccccc34)cc2)CC1
12.9
